test system: PBMC; assay: Cellular uptake in human PBMC at 0.1 uM assessed as TFV-diphosphate after 24 hrs by MS/MS analysis; assay type: ADME, cell-based
Measurement type: Drug uptake (pmol/10^6 cells)

| Molecular string | Value reported |
| --- | --- |
| CCCCCCCCCCCCCCCCOCCCOP(=O)(O)CO[C@H](C)Cn1cnc2c(N)ncnc21 | 0.07 |

====

Drug uptake: recorded values
system: PBMC; assay: Cellular uptake in human PBMC at 1 uM assessed as TFV-diphosphate level after 24 hrs by MS/MS analysis; assay type: ADME, cell-based
Measurement type: Drug uptake (pmol/10^6 cells)

| Molecule | Value reported |
| --- | --- |
| CCCCCCCCCCCCCCCCOCCCOP(=O)(O)CO[C@H](C)Cn1cnc2c(N)ncnc21 | 0.22 |
| C[C@H](Cn1cnc2c(N)ncnc21)OCP(=O)(O)O [TENOFOVIR ANHYDROUS] | 0.05 |
